- Protocol description: reducers of endogenous Her2 protein level, primary screen, SKBR3 breast tumor cells, AlphaScreen, ATP viability (AID 461);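 note: percent of carrier control wells set as 100% viability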
- Particulars: 18-24 h, measured here: SKBR3 viability, ATP luminescence, at 10 µM
Test readout: viability (%)
Please reply with the bare figure in % and do not write the unit itself.

Worked set:
Problem: Returns the measured viability for the input molecule. Input: COc1ccc(CC(=O)NC2CCN(CC(=O)Nc3ccc4c(c3)OCCO4)CC2)cc1OC
Result: 97.5

Problem: Consider next the molecule O=C(CN1C(=O)CC(c2ccco2)Sc2ccccc21)Nc1ccccc1F (stereo not drawn) in the same way.
Result: 82.5

Problem: Consider next the molecule Cc1nc(CNS(=O)(=O)c2cc(C)c(C)cc2C)cs1 in the same way.
Result: 99

Problem: Consider next the molecule CCCN(Cc1cc2ccc(C)cc2[nH]c1=O)C(=O)c1cccnc1 in the same way.
Result: 87

Problem: Consider next the molecule O=C1Nc2ccccc2OC1CC(=O)N1CCCC1 (stereo not drawn) in the same way.
Result: 88.5

---
Problem: Returns the measured viability for the input molecule. Input: Cc1csc(SCC(=O)NC(=O)NCc2ccccc2)n1
Result: 108

Problem: Consider next the molecule CCOC(=O)c1sc(N)c(C(=O)OCC)c1COC(=O)C1CC(=O)N(Cc2ccco2)C1 (stereo not drawn) in the same way.
Result: 91.5

Problem: Consider next the molecule CCN(c1cccc(C(F)(F)F)c1)S(=O)(=O)c1ccc2c(c1)CCN2C(=O)C1CC1 in the same way.
Result: 99

Problem: Consider next the molecule COc1ccc(N2CCN(c3ccc(N)cc3C#N)CC2)cc1 in the same way.
Result: 103

Problem: Consider next the molecule COc1ccc(CCNc2nc(N3CCOCC3)nc(N3CCOCC3)n2)cc1OC in the same way.
Result: 81

Problem: Consider next the molecule O=C(CSc1nnnn1-c1ccc2c(c1)OCO2)NCc1cccs1 in the same way.
Result: 88

Problem: Consider next the molecule Cc1nnc(SCc2cn3ccsc3n2)n(N)c1=O in the same way.
Result: 95.5

Problem: Consider next the molecule O=c1cc(COn2nnc3ccc(C(F)(F)F)cc32)nc2sccn12 in the same way.
Result: 89.5
